Sourced from patent US8569292B2

- Assay System: 11β-HSD1 (Homo sapiens, UniProt P28845)
- Sequence (P28845 whole entry): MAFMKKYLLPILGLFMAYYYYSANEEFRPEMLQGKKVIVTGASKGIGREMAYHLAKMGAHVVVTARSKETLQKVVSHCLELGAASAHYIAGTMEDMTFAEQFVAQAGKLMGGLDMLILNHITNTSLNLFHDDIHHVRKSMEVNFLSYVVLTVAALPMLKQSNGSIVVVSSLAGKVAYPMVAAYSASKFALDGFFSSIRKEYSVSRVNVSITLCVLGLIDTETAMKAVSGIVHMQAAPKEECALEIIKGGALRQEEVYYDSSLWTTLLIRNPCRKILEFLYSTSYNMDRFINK
- Assay Summary: Biological Test Example 4: microsomal 11β-HSD1 in the presence of 50% human plasma
- Condition Description: IC50 in Test Example 4 divided by IC50 in Test Example 1
Parameter: Shift

Consider the following illustrative entries.
[
  {
    "Compound": "Cc1cccc(-c2ccc([C@H](C)N3CC[C@](CCCO)(c4ccccc4)OC3=O)cc2)n1 [EXAMPLE 90]",
    "Shift": 25.5
  },
  {
    "Compound": "C[C@@H](c1ccc(-c2cnc(-n3ccnc3)nc2)cc1)N1CC[C@](CC(C)(C)O)(c2ccccc2)OC1=O [EXAMPLE 14]",
    "Shift": 5.0
  }
]

Ask | Missing value: Shift, 11β-HSD1 (Homo sapiens, UniProt P28845), entry Cc1nc(C)c(-c2ccc([C@H](C)N3CC[C@](CCC(N)=O)(c4ccc(F)cc4)OC3=O)cc2)s1 [EXAMPLE 84] . Fill in?
Reply | 3.5

Ask | What do we get for Cc1cc(-c2ccc([C@H](C)N3CC[C@](CCCO)(c4ccc(F)cc4)OC3=O)cc2)cc(C)[n+]1[O-] [EXAMPLE 122] ?
Reply | 2.6
